procedure-details: Brain and plasma levels after peripheral dosing (LC/MS/MS)
Assay type: in vivo, mouse
test-conditions: mouse, brain, other: i.p. or p.o.; single peripheral dose of 5 mg/kg i.p. or p.o., at 90 min
value-type: concentration at 90 min (nM)

CCOc1ccc2nc(SCc3nc(N)nc(N4CCOCC4)n3)sc2c1 = 450

* * *

procedure-details: Brain and plasma levels after peripheral dosing (LC/MS/MS)
Assay type: in vivo, mouse
test-conditions: mouse, brain and plasma, other: i.p. or p.o.; single dose 5 mg/kg i.p. or p.o., 90 min; read-out: brain level as share of plasma level
value-type: Kp at 90 min

CCOc1ccc2nc(SCc3nc(N)nc(N4CCOCC4)n3)sc2c1 [PF-719] = ~0.3

* * *

procedure-details: Brain and plasma levels after peripheral dosing (LC/MS/MS)
Assay type: in vivo, mouse
test-conditions: mouse, in vivo, other: i.p. or p.o.; single dose 5 mg/kg i.p. or p.o.
value-type: half-life (h)

CCOc1ccc2nc(SCc3nc(N)nc(N4CCOCC4)n3)sc2c1 [PF-719] = 6
